experimental-system: Inhibitor of nuclear factor kappa-B kinase subunit beta (Homo sapiens, UniProt O14920)
Sequence (O14920 whole entry): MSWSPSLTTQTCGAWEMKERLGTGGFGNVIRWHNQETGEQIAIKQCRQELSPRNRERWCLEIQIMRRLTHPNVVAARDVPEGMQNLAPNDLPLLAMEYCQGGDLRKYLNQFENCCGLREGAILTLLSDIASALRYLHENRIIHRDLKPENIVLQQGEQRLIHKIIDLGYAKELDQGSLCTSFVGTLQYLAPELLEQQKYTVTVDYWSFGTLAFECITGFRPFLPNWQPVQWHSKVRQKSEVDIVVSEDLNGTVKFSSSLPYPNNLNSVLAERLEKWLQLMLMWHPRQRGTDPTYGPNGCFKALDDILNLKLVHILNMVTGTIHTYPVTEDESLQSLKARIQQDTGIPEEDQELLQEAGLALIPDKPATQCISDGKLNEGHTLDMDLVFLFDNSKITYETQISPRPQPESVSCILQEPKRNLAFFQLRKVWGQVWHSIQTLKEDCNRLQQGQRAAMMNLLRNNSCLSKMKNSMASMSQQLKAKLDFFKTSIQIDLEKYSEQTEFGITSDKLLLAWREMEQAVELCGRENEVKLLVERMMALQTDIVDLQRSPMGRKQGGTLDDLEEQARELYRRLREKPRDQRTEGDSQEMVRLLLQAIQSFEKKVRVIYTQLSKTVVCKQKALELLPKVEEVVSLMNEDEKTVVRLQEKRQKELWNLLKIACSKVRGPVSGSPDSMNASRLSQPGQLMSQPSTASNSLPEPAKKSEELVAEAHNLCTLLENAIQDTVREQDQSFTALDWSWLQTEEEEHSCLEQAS
protocol-notes: Inhibition of human IKK-beta by substrate phosphorylation assay
pIC50: −log10 of the molar value.
Classification field: enter satisfied for pIC50 values not below 6, not satisfied for values below it.

# compound, class-name
records = [
    ("CCCCCCn1cc2c(n1)CCc1c-2sc(NC(N)=O)c1C(N)=O", "not satisfied"),
    ("NC(=O)Nc1sc2c(c1C(N)=O)CCc1nn(C3CCCN(Cc4ccc(F)cc4F)C3)cc1-2 (configuration not stated)", "not satisfied"),
]

Given NC(=O)Nc1sc2c(c1C(N)=O)CCc1nn(C3CCCN(Cc4ccc(N)cc4F)C3)cc1-2 (configuration not stated) , state whether its pIC50 is at least 6.
satisfied

Given `NC(=O)Nc1sc2c(c1C(N)=O)CCc1nn(Cc3ccccc3)cc1-2` , state whether its pIC50 is at least 6.
not satisfied

Given NC(=O)Nc1sc2c(c1C(N)=O)CCc1nn(C3CCCN(Cc4ccc(Cl)cc4F)C3)cc1-2 (configuration not stated) , state whether its pIC50 is at least 6.
satisfied
